protocol: label from the status in PepcDB records
assay_readout: protein production

Past entries and their recorded results:
[
  {
    "sequence_input": "MRKNDIADISPRDPMLALVLLTRLPLPALPEAAFARQAAAVWAFPLAGLAVGALAWATGALALAAGLAPVAVAGLMLVVLVMTTGGMHEDGLADTADGLWGGFTPERRLEIMKDSHIGTYGVLALILSQGLRLAALSALVAGGALGAAVAAAVWSRALMPVLMAALPNARGTGLSQSVGRPTPQAVTLGLGLAAVLALLLAGWAVLIPALLAVLSVLGLAALARAKIGGQTGDILGAAQQLAEITCLLALSAAL",
    "assay_readout": "protein production",
    "assay_value": "failed"
  },
  {
    "sequence_input": "MDKLDANVSSEEGFGSVEKVVLLTFLSTVILMAILGNLLVMVAVCWDRQLRKIKTNYFIVSLAFADLLVSVLVMPFGAIELVQDIWIYGEVFCLVRTSLDVLLTTASIFHLCCISLDRYYAICCQPLVYRNKMTPLRIALMLGGCWVIPTFISFLPIMQGWNNIGIIDLIEKRKFNQNSNSTYCVFMVNKPYAITCSVVAFYIPFLLMVLAYYRIYVTAKEHAHQIQMLQRAGASSESRPQSADQHSTHRMRTETKAAKTLCIIMGCFCLCWAPFFVTNIVDPFIDYTVPGQVWTAFLWLGYINSGLNPFLYAFLNKSFRRAFLIILCCDDERYRRPSILGQTVPCSTTTINGSTHVLSGCSPVSSFLLLFCNRPVPV",
    "assay_readout": "protein production",
    "assay_value": "failed"
  },
  {
    "sequence_input": "MEDAAAPGRTEGVLERQGAPPAAGQGGALVELTPTPGGLALVSPYHTHRAGDPLDLVALAEQVQKADEFIRANATNKLTVIAEQIQHLQEQARKVLEDAHRDANLHHVACNIVKKPGNIYYLYKRESGQQYFSIISPKEWGTSCPHDFLGAYKLQHDLSWTPYEDIEKQDAKISMMDMLLSQSVALPPCTEPNFQGLTH",
    "assay_readout": "protein production",
    "assay_value": "failed"
  },
  {
    "sequence_input": "MDWLLTPGPVRLHPKALEALARPQLHHRTEAAREVFLKARGLLREAFRTEGEVLILTGSGTLAMEALVKNLFAPGERVLVPVYGKFSERFYEIALEAGLVVERLDYPYGDTPRPEDVAKEGYAGLLLVHSETSTGALADLPALARAFKEKNPEGLVGADMVTSLLVGEVALEAMGVDAAASGSQKGLMCPPGLGFVALSPRALERLKPRGYYLDLARELKAQKEGESAWTPAINLVLAVAAVLEEVLPRLEEHLALKAWQNALLYGVGEEGGLRPVPKRFSPAVAAFYLPEGVPYARVKEAFAQRGAVIAGGQGPLKGKVFRLSLMGAYDRYEALGVAGMFREVLEEILPAS",
    "assay_readout": "protein production",
    "assay_value": "not failed"
  },
  {
    "sequence_input": "MKKRVQNKRFARTICDGNNPSQIATDLRDICEGEKTRRFSVANFARDNSLAILREICEELARTKKFLAKSLQIARDLQVQILFCGNFCDETYKDRDFAGWLKLYVTNGCENELLLLWLYEIVQEPRSKITTAKSFVVDVNANKTYAKFKPFILASQAFYLTRV",
    "assay_readout": "protein production",
    "assay_value": "not failed"
  }
]

Given the entry MTIRMIPHPIFSSPTKRRREKPDPPARAGAAQPSGPARMTPQQQTEWQQRLIALLESQPPDDDGAHDLSHLHRVWAVARTLLAHYPDADSIVVMAGSYLHDLVNLPKNHPQRQLASHWSAERARQLLADSGLTEAQLDNLAHAIEAHSYSAAIPPRTLEARIVQDADRMDALGPVGLARMFYVSGRMGRALAHPLDPLAEHRGRDDQAWAIDHIDVKLAKLPGMMQTEAGRAMAERKLEWLFHFRDEFCRDWMARLEHHHHHH , report its measured protein production. not failed

----------
protocol: label from the status in PepcDB records

[
  {
    "sequence_input": "MGLQGQLSDVSSDSIPLMLLSLLAVFINHLRSFLLRLTSKSNPNLPVDDVSIASGLANIIVLADQLSLNRLFSYRCGDGGGGGSDCVVCLSKLKEGEEVRKLECRHVFHKKCLEGWLHQFNFTCPLCRSALVSDDCVSKTQRSVGRDLISCFSLH",
    "protein production": "failed"
  },
  {
    "sequence_input": "MSRKILDRYIAKTVLSAIGLVTLMLVGLQIFILFVNQIDDLGRADYGIVQAGVFVLLQMPYQVYLFFPIASLLGCLVGLGVLANHSELVVMRAAGISIGQITGAVLKASLIVILLITSLGETIVPVMAHYANEYKVSALTGGQALLTPRGVWVRNGNDFVSIASVTHENTLRYVNQFRFDNQHNLKLARQISEVKYVNNSWIAYDVKQTEFAEDHTKAHHFDTLPWDVPVKPEILKITGTNPDEMTLHELNRYLREQQRNHQNVANYKFAFFQRITQPLNTMVMMILAIPFIFGPLRSSTMGSKLLVGAMVGFGFHILNRFFGPVSTVFQWPPELAAFSPTLIFSLIGIYLMRRVR",
    "protein production": "failed"
  },
  {
    "sequence_input": "MACSRFERQNMFKLCLDFTQKRAPMSQKQPINLVLSGGGTRAIGHLAIISALLERGFEIRAISGSSGGAIVGSLLASGKSPKECYDLLLKTNFVRLFAFKMSQGGLFHLKRGEAYLEKILGIKEFSELSLPLYVCVVDLKEGRPFFLSEGNIAKAVIASSSISPFMRPVEMEGRMGADGGIMNNLPIEPFLEENLPIIGINVNPNRPFHSHSMVSIAKRALFLQFYSNILERSKLCSLYLEPSGIDAYTIYDLKSLESVYNLCQEWCETNLDALIGDVPLHVLRP",
    "protein production": "failed"
  }
]

----------
protocol: label from the status in PepcDB records

[
  {
    "sequence_input": "MILSQQKYNYLAKVSDSNGVISALAFDQRGALKCLMAQYQMKEPTVAQMEELKVLVSEELTPYASSILLDPEYGLPAAQARDREAGLLLAYEKTGYDANTTSRLPDCLVDWSIKRLKEAGADAVKFLLYYDVDGDPQVNVQKQAYIERIGSECQAEDIPFFLEILTYDETISNNSSVEFAKVKVHKVNDAMKVFSAERFGIDVLKVEVPVNMVYVEGFAEGEVVYSKEEAAQAFREQEASTDLPYIYLSAGVSAELFQETLVFAHKAGAKFNGVLCGRATWAGSVQVYMEEGKEAARQWLRTSGLQNINELNKVLKTTASPWTEKVSVG",
    "protein production": "not failed"
  },
  {
    "sequence_input": "MSFVLWLVGKKCIVDVGTNGKNSWKVGGKDGVACRDHSGFRLEKLGLFCWWKLQKDGCGQKLNRRKDHRAFPLPSVVNERPRKLND",
    "protein production": "failed"
  },
  {
    "sequence_input": "MIESAVGKAAYSTAAFLIKSLPVVVIAIYAVSYSIKKGYLERFALFLQPALRKFGVSEFAVISFATCFVSPTASYSMLSQAWREKKVDDREVIAISFLNSFPSVFSHLYAYFIPFVIPVLGFAGVVYTAVRFAVAAIKSLIGLLLSRSRKNSDTSAPELSPLSVSQNVVRIGAVMAATYFIVSLLSQLGVFDLMAESLKFLPFRAEAVTIAIVEFFNIRSAVVTAASFIDAGLEWKWAVIGLILGNVISFSTRSVKHSLPMHLSLFGGFGVKIVLLNSIVTLILDIFFVVLLLLV",
    "protein production": "failed"
  },
  {
    "sequence_input": "MEDPLGRLEWIKFLSAFYDKEDKAENYFNQQVSKVMATENKVSSLKKPKVAFGMVDNGKVYIPAKNSYAAKMVDMAGGDYIFKDLNNKSGYITLEDFYSKSKDADVLIYSSSKEYTPSLKSMLSAAPILKTIKPVKNKKVWCFGKDYYQAIDKTDEIIEDLASIFHPESFKGYKIKHYSHLEHHHHHH",
    "protein production": "not failed"
  }
]

----------
protocol: label from the status in PepcDB records
assay_readout: protein production

[
  {
    "sequence_input": "MTTFDAKKLKKEYLDWYNQILEFSNLSNNSVKIDTPFKDNSLDNLKIYALYDQSRDMITLTDDGYTIFGLENNGVSINKFKKRKKIFEEHLSAYGIKYNDKTHEIFVQTNFKNFNKSKHNLLQCLIFVNDMYLLSNPKSQNIFTEDVANKLDEHNIYYGRDIPIIGSSGVVHNFDFFISAKKNQKEKFINVFSNPNNSMIIKSKITDAMQAKKIKRHRQNEFIFILNDSKKEINEHNKNLLHENYISTIDYSELDEKIGLLI",
    "assay_value": "failed"
  },
  {
    "sequence_input": "MRAADAPDAPLPEDRRNAPVWFAHDLEAPRCTALFPRLADRRPALVVVGGFLGSGKTTFLNNCIEYHRARERFVAVIQNEVGATGVDARLMGDGAEVLALDEGCVCCSLAGSLAGGIRAITADFTPEVILLETTGLANPLNLLAELDTLRDMVRLDAVVTVVDAANIVPTLRDSDIARDQIRGADIIVCNKCDTVDETGRAALRATLTGLNGRAALHETSFGRIHPSLFMALEGERPPRGLMPAPHGTHATHADEGFAAVRLFFSGTIDEAALAPLLQQCPGAPFRIKGIVRVTDDEAPRLVQCVGARCEVERLDGGFEGTPFLVFIGRNPDETALLEHWAALGATAEPPAPQAEADTQPAQATKSASGGQSSDATRGCHDHHLEHHHHHH",
    "assay_value": "failed"
  },
  {
    "sequence_input": "MNVIYPLAVPKGRRLSCEVCEAPAERMCTACTVTYYCGPVHQKADWDSIHAKICQLLIPLRTTMPFYNSEEERQHGLQQLQRRQKHLIEFCYTVAQKYLFEGRHEDAVPAALHSLRFRMNVHGLSSVELVPAYLLLAEASLGLGRIVQAEEYLSQAQWTVLKSTDCSNATHSLLHRNLGLLYIAKKNLDEARYHLANDIYFASCAYGTEDIRTSGGYFHLANIFYGLKKMELADTLYTKVSEIWYTYLNSHYQALLEARSQQTDLLGKQFVNDTGLDEAQEAEAIRILTSTLIIQESTSTKAPQKSILILKTLSILYYLMLECSKAKEYAMKALSLAETYVSEEEQRFIQELLSVISAEEKQP",
    "assay_value": "failed"
  }
]
